A collection of compounds and their measured GI50
Test system: RPMI-8226 leukemia
Experiment: NCI tumour cell line growth inhibition, 48 h
VALUE TYPE: GI50

> print(dat)
                                 item.smiles       tested.system  result.value
 1  Nc1nc(N)c2cc(S(=O)(=O)c3cccc(C(F)(F)F)c3)ccc2n1  RPMI-8226 leukemia       5.21 µM
 2     CN(C)CCN1C(=O)c2cccc3cc(N)cc(c23)C1=O  RPMI-8226 leukemia       3.37 µM
 3  [O-]c1ccccc1C=NCCN=Cc1ccccc1[O-].[O]=[U+2]=[O]  RPMI-8226 leukemia       22.4 µM
 4  C=CC(=O)N1CCN([C@@H](CC2CC2)c2ccc([C@H](C)Nc3ncc4c(n3)N(CC)C(=O)OC4)cc2)CC1  RPMI-8226 leukemia       4.95 µM
 5              CC(C)Cn1cnc2c(N)nc3ccccc3c21  RPMI-8226 leukemia        5.5 µM
 6  CC(=O)Nc1ccc(CC[C@H]2CCC/C=C/[C@@H]3C[C@H](O)C[C@H]3[C@H](O)/C=C/C(=O)O2)cc1  RPMI-8226 leukemia      0.222 µM
 7        COc1ccccc1C1C(C#N)=C(N)SC(N)=C1C#N  RPMI-8226 leukemia       12.3 µM
 8  C=CCn1c(SCC(=O)Nc2ccc(C(=O)/C=C/c3cc(OC)c(OC)c(OC)c3)cc2)nnc1-c1cc(OC)c(OC)c(OC)c1  RPMI-8226 leukemia       1.51 µM
 9  CN1CCN(c2ccc3nc(-c4[nH]ncc4Nc4ncnc5[nH]ccc45)[nH]c3c2)CC1  RPMI-8226 leukemia       5.92 µM
10  Clc1cccc(-c2cc(-c3ccc4c(c3)OCCO4)[nH]n2)c1  RPMI-8226 leukemia       6.38 µM
11     COCCn1c(Nc2ccc(C(=O)NO)cc2)nc2ccccc21  RPMI-8226 leukemia        3.7 µM
12  Cc1cc2c(cc1Cl)SC(=Nc1ccc(Cl)cc1)N(S(=O)(=O)c1ccc(Br)s1)S2(=O)=O  RPMI-8226 leukemia        3.7 µM
13  COc1ccc(-c2nc(-c3nc4cc(Cl)c(Cl)cc4[nH]3)c3ccccn23)cc1  RPMI-8226 leukemia       3.74 µM
14  CC[O-].CC[O-].[O-]c1ccccc1C=NC12CC3CC(CC(C3)C1)C2.[O-]c1ccccc1C=NC12CC3CC(CC(C3)C1)C2.[Ti+4]  RPMI-8226 leukemia       57.6 µM
15  CCN(Cc1ccccc1)c1ccc(/C=C2\COc3ccccc3C2=O)cc1  RPMI-8226 leukemia        146 µM
16  COc1ccc2c(c1[N+](=O)[O-])CC[C@@H]1[C@@H]2CC[C@]2(C)C(=O)CC[C@@H]12  RPMI-8226 leukemia     > 1000 µM
17  [Cu].c1ccc2c(c1)C1=NC2=NC2=NC(=NC3=NC(=NC4=NC(=N1)c1ccccc14)c1ccccc13)c1ccccc12  RPMI-8226 leukemia      > 100 µM
18  COc1ccc2c(c1)c(-c1ccc(-c3cn(C)c4ccc(OC)cc34)s1)cn2C  RPMI-8226 leukemia      > 100 µM
